Provide the reported Residual turnover of each item.
- System: HPPD polypeptides (wild-type SEQ ID NO:1 and mutants)
- condition.context: in the presence of Cmpd. 1, 15 μM inhibitor, high substrate concentration; total change in signal normalized to no inhibitor
Numbers only, in %.

Recorded results for 2 molecules are shown here.
molecule	unit.name	Residual turnover
10 (protein, mutant HPPD polypeptide) MADLYENPMGLMGFEFIEFASPTPGTLEPIFEIMGFTKVATHRSKNVHLYRQGEINLILNNEPNSIASYFAAEHGPSVCGMAFRVKDSQKAYNRALELGAQPIHIDTGPMELNLPAIKGIGGAPLYLIDRFGEGSSIYDIDFVYLEGVERNPVGAGLKVIDHLTHNVYRGRMVYWANFYEKLFNFREARYFDIKGEYTGLTSKAMSAPDGMIRIPLNEESSKGAGQIEEFLMQFNGEGIQHVAFLTDDLVKTWDALKKIGMRFMTAPPDTYYEMLEGRLPDHGEPVDQLQARGILLDGSSVEGDKRLLLQIFSETLMGPVFFEFIQRKGDDGFGPDSFKVLFESVERDQVRRGVLTAD	%	66
31 (protein, mutant HPPD polypeptide) MADLYENPMGLMGFEFIEFASPTPGTLEPIFEIMGFTKVATHRSKNVHLYRQGEINLILNNEPNSIASYFAAEHGPSVCGMAFRVKDSQKAYNRALELGAQPIHIDTGPMELNLPAIKGIGGAPLYLIDRFGEGSSIYDIDFVYLEGVERNPVGAGLKVIDHLTHNVYRGRMVYWANFYEKLFNFREARYFDIKGEYTGLTSKAMSAPDGMIRIPLNEESSKGAGQIEEFLMQFNGEGIQHVAFLTDDLVKTWDALKKIGMRFMTAPGDEYYEMLEGRLPDHGEPVDQLQARGILLDGSSVEGDKRLLLQIFSETLMGPVFFEFIQRKGDDGFGPHSFKVLFESVERDQVRRGVLTAD	%	67

Ask | State its Residual turnover for this molecule: 24 (protein, mutant HPPD polypeptide) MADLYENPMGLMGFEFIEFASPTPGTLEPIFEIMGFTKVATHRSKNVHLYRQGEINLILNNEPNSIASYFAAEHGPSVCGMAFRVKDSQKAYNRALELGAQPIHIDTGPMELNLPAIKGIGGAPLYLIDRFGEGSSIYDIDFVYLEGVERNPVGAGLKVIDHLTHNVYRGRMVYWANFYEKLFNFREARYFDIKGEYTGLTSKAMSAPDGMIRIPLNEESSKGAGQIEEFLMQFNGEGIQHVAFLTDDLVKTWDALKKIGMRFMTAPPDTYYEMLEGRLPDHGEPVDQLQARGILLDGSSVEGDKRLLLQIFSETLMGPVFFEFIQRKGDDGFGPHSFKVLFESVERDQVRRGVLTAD
Reply | 57
